Each recorded value in this set is attributed to patent US20200253996A1.

- target_entity: TCTP (Homo sapiens)
- Sequence (P13693 whole entry): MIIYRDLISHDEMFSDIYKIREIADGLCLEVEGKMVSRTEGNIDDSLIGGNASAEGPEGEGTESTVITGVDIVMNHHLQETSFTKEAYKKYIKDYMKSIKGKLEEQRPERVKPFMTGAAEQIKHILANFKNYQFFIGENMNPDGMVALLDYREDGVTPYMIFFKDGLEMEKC
- test: Interaction with TCTP by surface plasmon resonance (SPR), Biacore T200
- Format: binding
- run_parameters: TCTP bonded to chip, Biacore T200
property_measured: Kd
Please provide the amount together with its unit, number first.

Solved entries (count: 5):
INPUT: Find the recorded Kd belonging to CC(=O)NC1CCC(c2ccc(Br)cc2)c2ccccc21 (mixture of isomers) [AC088] and report it.
OUTPUT: 135 µM

INPUT: Note, next up: CC(=O)NC1CCC(c2cccc(S[C@@H]3OC(COC(C)=O)[C@@H](OC(C)=O)C(OC(C)=O)C3OC(C)=O)c2)c2ccccc21 (stereo in doubt) [AC268-cis]
OUTPUT: 170 µM

INPUT: Try this molecule next: COc1ccc2c(c1)CCCC2c1cccc(Cl)c1 (stereo not shown) [AC101]
OUTPUT: 145 µM

INPUT: Same read-out for CC(=O)N[C@@H]1CC[C@H](c2ccc(C(=O)NC3OC(COC(C)=O)C(OC(C)=O)C(OC(C)=O)C3OC(C)=O)cc2)c2ccccc21 (stereo in doubt) [VM060-cis] ?
OUTPUT: 26 µM

INPUT: Param item: Ic1cccc(C2CCCc3ccccc32)c1 (stereo not shown) [AC041]
OUTPUT: 59 µM

Continuing:
INPUT: Kd for c1ccc2c(c1)CCCC2c1ccc2ccccc2c1 (stereo not shown) [AC014, 1,2,3,4-tetrahydro-1,2′-binaphthalene] ?
OUTPUT: 7 µM

INPUT: CC(C)OC(=O)c1ccc(C2CCCc3ccccc32)cc1 (stereo not shown) [AC034] , same question.
OUTPUT: 29 µM

INPUT: Same for c1ccc2c(c1)CCCC2c1ccc2[nH]ccc2c1 (stereo not shown) [AC082]
OUTPUT: 123 µM

INPUT: Moving on to the next molecule: c1ccc2c(c1)OCCC2c1ccc2ccccc2c1 (stereo not shown) [AC069, 4-(naphthalen-2-yl)chroman]
OUTPUT: 24 µM

INPUT: What would you report for CC(=O)NC1CCC(c2cccc(I)c2)c2ccccc21 (mixture of isomers) [AC087] ?
OUTPUT: 16 µM
